biological target: SARS-CoV-2 spike receptor-binding domain, ancestral (amino acids 331-529), biotinylated (SARS-CoV-2, ancestral (Wuhan), UniProt P0DTC2, biotin (RBD expression vector co-expressed with BirA-Flag, 100 μM biotin added)); experiment: BLI; conditions: both partners purified
Known koff of a selection of binders
Answer in s⁻¹, number only, no unit symbol.

| BINDER | koff, s⁻¹ |
| --- | --- |
| NIV-8 Fab (Fab, V domains shown) VH: EVQLVESGGGVVQPGRSLRLSCAASGFKFSKFAMHWVRQAPGKGPEWVAVISYDGNQYHSADSVKGRFTISRDNSFNTLYLQMNSLGPEDTAVYYCARDGPDTSGYYANIYFDFWGQGTLVTVSS VL: QSVLTQPPSVSGAPGQRVTISCTGSSSNIGAGYDVHWYQQLPGRAPKLLIFDNNNRPSGVPDRFSGSKSGTSASLAITGLQTEDEAYYYCQSYDNSLILAVFGGGTKVTVL | 1.15e-06 |

Asked: Name the reported koff value associated with the binder NIV-11 Fab (Fab, V domains shown) VH: QLVQSGPEVKKPGTSVKVSCKASGFTFYYSAVQWVRQARGQRLEWLGWMAVGSGKANYAQKFQERLTLTRDMSTSTAYMELSSLRSEDTAVYYCAAPNCTGGSCYDGFNLWGQGTVVTVSS VL: EIVLTQSPGTLSLSPGDRAILSCRASQTVNSNYLAWYQQKPGQAPRLLIYGTSSRATGIPDRFSGSGSGTDFTLTISRLEPEDFAVYYCQQYGSSPWLFGQGTKVEIK
Given back: 1.12e-06

Asked: Name the reported koff value associated with the binder NIV-10 Fab (Fab, V domains shown) VH: EVQLVESGGGLVQPGGSLRLSCAASGFTFYSYWMTWVRQAPGKGLEWVANIKHDESESHYVDSVRGRFTISRDNAKNSVYLQMKGLRAEDTAVYYCARDGGYNILTAYYHAPSYWGQGTLVTVSS VL: QSALTQPASVSGSPGQSITISCTGTSSDVGGYNFVSWYRQYPGKAPQLMIYDVSRRPSGDSDRFSGSKSGNTASLTISGLQAEDEAEYHCSSYTGRSPYVVFGGGTKVTVL
Given back: 1.24e-06

Asked: Name the reported koff value associated with the binder NIV-13 Fab (Fab, V domains shown) VH: EVQLLESGGGLVQPGGSLRLSCAASGFTFSRYALSWVRQAPGKGLEWVSAISGAAITTYYADSVKGRFTISRDDSRNTLFMQMDSLRAEDTAVYYCAKGDYYDSSGYLAEYFPHWGQGTLVTVSS VL: SYELTQPPSVSVSPGQTARITCFADALPKQHAYWYQQKAGQAPVLVIFKDTERPSGIPKRFSGSRSGATVTLTISGVQAEDEADYYCQSTDISGVLFGGGTKLTVL
Given back: 1.19e-06
